Here the recorded binding signal is given for each entry.
- test-target: HNF4alpha8 (COS-7 nuclear extract) (Homo sapiens, UniProt P41235-5 1-452)
- Sequence: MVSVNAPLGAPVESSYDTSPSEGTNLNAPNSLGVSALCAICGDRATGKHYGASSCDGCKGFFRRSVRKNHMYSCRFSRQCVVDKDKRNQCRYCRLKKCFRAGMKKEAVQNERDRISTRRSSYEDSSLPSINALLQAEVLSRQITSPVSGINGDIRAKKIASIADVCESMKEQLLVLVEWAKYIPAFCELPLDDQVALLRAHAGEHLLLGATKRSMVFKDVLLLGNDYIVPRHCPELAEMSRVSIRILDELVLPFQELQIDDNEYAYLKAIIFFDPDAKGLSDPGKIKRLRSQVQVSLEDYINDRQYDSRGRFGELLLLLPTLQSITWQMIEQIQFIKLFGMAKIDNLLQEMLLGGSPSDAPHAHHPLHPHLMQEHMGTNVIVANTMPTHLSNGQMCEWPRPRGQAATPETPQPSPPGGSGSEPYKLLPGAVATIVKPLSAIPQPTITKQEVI
- method-summary: protein-binding microarray; COS-7 nuclear extract on double-stranded Agilent 4x180k PBM; binding buffer, salt, pH and temperature not given in the material; high values mean tight binding
- run-conditions: chain copies: 2; label: 3' end of strand 1 on the slide; dsDNA, one strand shown
Whole data set: some 18,000 sequences, median “log2 normalized intensity” near 0.36, cut for the highest 2% near 7.3. What follows is part of a selection rich in the highest values, with near analogues and random picks from the rest.

In the examples that follow, each entry is paired with its recorded binding signal.
sequence-text: AGTGAGCCAAGGTACCCTGGCTTGTAATTCGCCTAGGGAGATTAGAGTATCGGTCGA
binding signal: -0.844 log2 normalized intensity
--
sequence-text: AACACTATCTTCTTTCAGTGTTGACCTTTGGCCTAGGGAGATTAGAGTATCGGTCGA
binding signal: 7.46 log2 normalized intensity

Query: Which binding signal value is on record for GAATGTTGAACCTTTCTTTGTCTTTGCAATGCCTAGGGAGATTAGAGTATCGGTCGA ?
Response: 1.98 log2 normalized intensity

Query: I'd like to know its binding signal. The sequence in question is CATGCTCTTGGAATGTTGAACCTTTCTTTGGCCTAGGGAGATTAGAGTATCGGTCGA
Response: 3.19 log2 normalized intensity

Query: Which binding signal is reported for this sequence? ATAGACTGTCCCTCAGTGTGGGACTTTGGTGCCTAGGGAGATTAGAGTATCGGTCGA
Response: 3.52 log2 normalized intensity

====

- test-target: HNF4alpha8 (COS-7 nuclear extract) (Homo sapiens, UniProt P41235-5 1-452)
- Sequence: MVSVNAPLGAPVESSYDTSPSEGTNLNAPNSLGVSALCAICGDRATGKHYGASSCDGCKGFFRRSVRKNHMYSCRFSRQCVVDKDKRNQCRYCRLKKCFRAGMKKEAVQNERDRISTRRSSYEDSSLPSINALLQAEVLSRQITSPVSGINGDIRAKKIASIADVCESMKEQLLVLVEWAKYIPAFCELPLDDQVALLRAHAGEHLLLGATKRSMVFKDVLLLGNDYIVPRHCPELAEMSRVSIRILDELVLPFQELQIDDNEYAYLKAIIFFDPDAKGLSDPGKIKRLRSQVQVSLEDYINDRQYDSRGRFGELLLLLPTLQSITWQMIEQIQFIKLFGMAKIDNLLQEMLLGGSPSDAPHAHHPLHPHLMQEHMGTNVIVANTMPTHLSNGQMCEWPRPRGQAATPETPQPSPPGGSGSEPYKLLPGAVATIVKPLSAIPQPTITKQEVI
- method-summary: protein-binding microarray; COS-7 nuclear extract on double-stranded Agilent 4x180k PBM; binding buffer, salt, pH and temperature not given in the material; high values mean tight binding
- run-conditions: chain copies: 2; label: 3' end of strand 1 on the slide; dsDNA, one strand shown
The full ranking holds about 18,000 sequences; the median of “log2 normalized intensity” is about 0.36, and the highest 2% start at about 7.3. The sample as a whole holds a higher share of the highest values than the screen did.
# strict inequality: binding signal < 0.7 log2 normalized intensity yields class 1, everything else yields class 0

The examples below pair each entry with its known result.
sequence-text: CATCTGGGCAAGGTGTCAACCTTCATTCTCGCCTAGGGAGATTAGAGTATCGGTCGA
test-target: HNF4alpha8 (COS-7 nuclear extract) (Homo sapiens, UniProt P41235-5 1-452)
class-assignment: class 1

sequence-text: CACAGTGTTATTTGCTGAGGTGGGGGAGGTGCCTAGGGAGATTAGAGTATCGGTCGA
test-target: HNF4alpha8 (COS-7 nuclear extract) (Homo sapiens, UniProt P41235-5 1-452)
class-assignment: class 0

Query: Check if binding signal falls below 0.7 log2 normalized intensity for GTCTTATCTACCTGGCTTGTTTGCAAAGCAGCCTAGGGAGATTAGAGTATCGGTCGA .
Response: class 0

Query: Please let me know if GACACTTCCAGCCAAACCAGGTCATGCATTGCCTAGGGAGATTAGAGTATCGGTCGA shows binding signal below 0.7 log2 normalized intensity.
Response: class 1

Query: For this sequence, is binding signal lower than 0.7 log2 normalized intensity? TGCTCACGTTTTCCTGCTGACCCTCTCCCCGCCTAGGGAGATTAGAGTATCGGTCGA
Response: class 0
